molecular target: the molecule itself; assay: crystal structure; hanging-drop vapor diffusion at 20°C; 20–30% PEG 4000 or PEG 6000, 0.2 M MgCl2, 100 mM Tris–HCl pH 8.5; protein 10–15 mg/ml; space group P212121
value kind: binding result

protein: wild-type EcAIII, mature (αβ)2 heterotetramer (class 2 L-asparaginase of Escherichia coli) (complex, EcAIII of Escherichia coli, α subunit: cut product of the precursor up to the scissile bond Gly178-Thr179; the linker is partly degraded, residues 158-178 are not visible in the structures; EcAIII of Escherichia coli, β subunit: cut product of the precursor beginning at the nucleophilic Thr179; Gene in pET-11d; no tag is mentioned; Dimer of two αβ heterodimers formed by autocleavage of the …) chain 1: MGKAVIAIHGGAGAISRAQMSLQQELRYIEALSAIVETGQKMLEAGESALDVVTEAVRLLEECPLFNAGIGAVFTRDETHELDACVMDGNTLKAGAVAGVSHLRNPVLAARLVMEQSPHVMMIGEGAENFAFARGMERVSPEIFSTSLRYEQLLAARKEGATVLDHSGAPLDEKQKMG chain 2: TVGAVALDLDGNLAAATSTGGMTNKLPGRVGDSPLVGAGCYANNASVAVSCTGTGEVFIRALAAYDIAALMDYGGLSLAEACERVVMEKLPALGGSGGLIAIDHEGNVALPFNTEGMYRAWGYAGDTPTTGIYREKGDTVATQ
result: binds
//
protein: EcAIII variant RDM1-38, mature (processed into α/β subunits) (complex, Escherichia coli, EcAIII of Escherichia coli, α subunit: cut product up to the scissile bond Gly178-Thr179; residues 158-178 not visible in the structure; EcAIII of Escherichia coli, β subunit beginning at Thr179, with the substitutions of RDM1-38; source: E. coli BL21 Gold, purified (DEAE-Sepharose, SEC); copies: 2 + 2) chain 1: MGKAVIAIHGGAGAISRAQMSLQQELRYIEALSAIVETGQKMLEAGESALDVVTEAVRLLEECPLFNAGIGAVFTRDETHELDACVMDGNTLKAGAVAGVSHLRNPVLAARLVMEQSPHVMMIGEGAENFAFARGMERVSPEIFSTSLRYEQLLAARKEGATVLDHSGAPLDEKQKMG chain 2: TVGAVALDLDGNLAAATSTGGMTNKLPGCVGSVPLVGAGCYANNASVAVSCTGTGEVFIRALAAYDIAALMDYGGLSLAEACERVVMEKLPALGGSGGLIAIDHEGNVALPFNTEGMYRAWGYAGDTPTTGIYREKGDTVATQ
result: binds
//
protein: EcAIII variant RDM1-18, mature (processed into α/β subunits) (complex, Escherichia coli, EcAIII of Escherichia coli, α subunit: cut product up to the scissile bond Gly178-Thr179; residues 158-178 not visible in the structure; source: E. coli BL21 Gold, purified (DEAE-Sepharose, SEC); copies: 2 + 2) chain 1: MGKAVIAIHGGAGAISRAQMSLQQELRYIEALSAIVETGQKMLEAGESALDVVTEAVRLLEECPLFNAGIGAVFTRDETHELDACVMDGNTLKAGAVAGVSHLRNPVLAARLVMEQSPHVMMIGEGAENFAFARGMERVSPEIFSTSLRYEQLLAARKEGATVLDHSGAPLDEKQKMG chain 2: TVGAVALDLDGNLAAATSTGGMTNKLPGVVGPWPLVGAGCYANNASVAVSCTGTGEVFIRALAAYDIAALMDYGGLSLAEACERVVMEKLPALGGSGGLIAIDHEGNVALPFNTEGMYRAWGYAGDTPTTGIYREKGDTVATQ
result: binds
